// reported cell viability for each item listed
System: OCI-AML2
Assay: cell viability relative to vehicle control; higher = less cytotoxic;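 further: after 48 h exposure read by CellTiter-Glo luminescence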
Conditions: 10 µM; SRSF2 genotype: P95H/wt
Structures can show the parent of a compound that is named as a salt.

molecule	unit_spec	cell viability
CCC(C)C(=O)O[C@@H]1[C@@H](OC(C)=O)[C@]2(C)[C@H](C(C)=O)CC[C@@]23O[C@]32CC[C@H]3C[C@@H](O[C@H]4C[C@@H](OC)[C@H](O[C@@H]5O[C@H](C)[C@@H](O)[C@@H](OC)[C@H]5O)[C@@H](C)O4)CC[C@]3(C)[C@@H]12 (stereo partly drawn) [Tenacissoside H]	%	98.9
Cn1c(COP(=O)(NCCBr)NCCBr)cnc1[N+](=O)[O-]	%	29.4
CC12NC(Cc3ccccc31)c1ccccc12 (single isomer, unassigned; (+)) [(+)-MK 801 maleate]	%	86.7

----------
Test system: MOLM14
Assay: cell viability relative to vehicle control; higher = less cytotoxic
Conditions: 10 µM; SRSF2 genotype: SRSF2 wt/wt
Structures can show the parent of a compound that is named as a salt.
// reported cell viability for each item listed
quantity_measured: cell viability (%)

compound	observed_value
N#C[C@H](O[C@@H]1O[C@H](CO[C@@H]2O[C@H](CO)[C@@H](O)[C@H](O)[C@H]2O)[C@@H](O)[C@H](O)[C@H]1O)c1ccccc1 [Amygdalin]	108
COc1cc(C2OCC3C(c4cc(OC)c(OC5OC(CO)C(O)C(O)C5O)c(OC)c4)OCC23)cc(OC)c1OC1OC(CO)C(O)C(O)C1O (configuration not stated) [Eleutheroside E]	107
CN(C)[C@@H]1C(=O)C(C(N)=O)=C(O)[C@@]2(O)C(=O)C3=C(O)c4c(O)ccc(Cl)c4[C@@](C)(O)[C@H]3C[C@@H]12 [Chlortetracycline HCl]	105
COc1cc2c(cc1O)CC1NCCc3cc(OC)c(O)c-2c31 (configuration not stated) [Norisoboldine]	103
c1ccc2c(c1)[I+]c1ccccc1-2 [Diphenyleneiodonium chloride (DPI)]	2.99
COc1ccc(C=O)cc1O [Isovanillin]	101
CN(C)C(=O)Oc1ccc[n+](C)c1 [Pyridostigmine Bromide (Mestinon)]	94.3

----------
// reported cell viability for each item listed
Tested on: MARIMO
Assay: cell viability relative to vehicle control; higher = less cytotoxic
Settings: 10 µM; SRSF2 genotype: SRSF2 wt/wt
Where a name gives a salt, the structure may show the parent alone.

molecule	cell viability / %
CN(C)[C@@H]1C(=O)C(C(N)=O)=C(O)[C@@]2(O)C(=O)C3=C(O)c4c(O)ccc(Cl)c4[C@@](C)(O)[C@H]3C[C@@H]12 [Chlortetracycline HCl]	108
CCN(C)C(=O)Oc1cccc([C@H](C)N(C)C)c1 [Rivastigmine tartrate (Exelon)]	105
CN(C)C(=O)Oc1ccc[n+](C)c1 [Pyridostigmine Bromide (Mestinon)]	98.7
CN1[C@@H]2CC[C@H]1C[C@@H](OC(=O)[C@H](CO)c1ccccc1)C2	107
CN(C)Cc1c[nH]c2ccccc12	102
CCN(Cc1ccc(Cl)nc1)/C(=C/[N+](=O)[O-])NC	99
OC(CNc1ccccc1)Cn1c2ccc(Br)cc2c2cc(Br)ccc21 (stereo not given)	98.2
CCN1C[C@]2(COC)CC[C@H](OC)[C@]34C1[C@H]([C@H](OC)[C@H]23)[C@@]1(OC(C)=O)C[C@H](OC)[C@@]2(O)C[C@@H]4[C@@H]1[C@H]2OC(=O)c1ccc(OC)cc1	93.3
COc1cc(C(=O)O)cc(OC)c1OC	106
C[C@@H]1CC[C@@]2(OC1)O[C@H]1C[C@H]3[C@@H]4CC=C5C[C@@H](O[C@@H]6O[C@H](CO)[C@@H](O[C@@H]7O[C@@H](C)[C@H](O)[C@@H](O)[C@H]7O)[C@H](O)[C@H]6O[C@@H]6O[C@@H](C)[C@H](O)[C@@H](O)[C@H]6O)CC[C@]5(C)[C@H]4CC[C@]3(C)[C@H]1[C@@H]2C [Dioscin (Collettiside III)]	0.64
CC[C@H]1CN2CC[C@H]1C[C@H]2[C@H](O)c1ccnc2ccc(OC)cc12 [Hydroquinine]	111
CC(C)=CCCC(C(=O)O)C1CCC2(C)C3=C(CCC12C)C1(C)CCC(=O)C(C)(C)C1CC3 (stereo not given)	99
CN1[C@@H]2CC[C@H]1C[C@@H](OC(=O)C(CO)c1ccccc1)C2 (stereo not given in full) [Atropine sulfate monohydrate]	112
CN(C)[C@@H]1C(=O)C(C(N)=O)=C(O)[C@@]2(O)C(=O)C3=C(O)c4c(O)cccc4[C@@](C)(O)[C@H]3[C@H](O)[C@@H]12	87.4
CN(C)C1C(=O)C(C(N)=O)=C(O)C2(O)C(=O)C3=C(O)c4c(O)cccc4C(C)(O)C3CC12 (stereo not given) [Tetracycline hydrochloride]	96.3
C=C[C@@]12CN(C)[C@H]3C[C@]14C(=Nc1ccccc14)[C@@H]1C[C@@H]2[C@@H]3CO1	102
COc1ccc(N(C(=O)Oc2c(C)cccc2C)c2ccnc(Nc3ccc(N4CCN(C)CC4)cc3)n2)c(OC)c1	58.7
CCC12C=CCN3CC[C@@]4(c5ccc(OC)cc5N(C)[C@H]4[C@@](O)(C(=O)OC)[C@@H]1OC(C)=O)[C@@H]32 (stereo not given in full)	107
CC(C)C1=CC(=O)[C@@](C)(C2[C@H](O)C[C@@]3(C)[C@@H]4CC=C5[C@@H](CC[C@@H](OC6OCC(O)C(O)C6OC6OC(C)C(O)C(O)C6O)C5(C)C)[C@]4(C)C(=O)C[C@]23C)O1 (stereo not given in full)	92.5
O=C1CC[C@@]2(O)[C@H]3Cc4ccc(O)c5c4[C@@]2(CCN3CC2CC2)[C@H]1O5 [Naltrexone HCl]	103
CC(C)c1ccc(CO)cc1	110
Cc1ccccc1-n1c(CF)nc2ccc(N)cc2c1=O	95.7
Cc1cccc([C@H](C)c2c[nH]cn2)c1C [Dexmedetomidine]	101
Cc1c(N[C@@H](c2nnc(-c3ccc(C#N)cc3)o2)[C@H](C)O)ccc(C#N)c1Cl	96.5
COc1ccc2c(c1)[nH]c1c(C)nccc12 [Harmine hydrochloride]	87.7
CCC1CN2CCC3(C(=O)Nc4ccccc43)C2CC1C(=COC)C(=O)OC (stereo not given)	72
c1c2c(cc3c1OCO3)-c1cc3ccc4c(c3c[n+]1CC2)OCO4 [Coptisine chloride]	99.8
CCCCCc1cc(O)cc(O)c1	96.8
CCN(CC)CCOC(=O)C(O)(c1ccccc1)c1ccccc1 [Benactyzine hydrochloride]	98.4
CNCC(O)c1ccc(O)cc1 (stereo not given) [Synephrine HCl]	99.8

----------
System: MOLM14
Test: cell viability relative to vehicle control; higher = less cytotoxic
Conditions: 10 µM; SRSF2 genotype: SRSF2 wt/wt
Where a name gives a salt, the structure may show the parent alone.
// classify: if (cell viability < 90%) 1 else -1

compound	class_name
CC(=O)OC(C)(C)/C=C/C(=O)[C@](C)(O)[C@H]1[C@H](O)C[C@@]2(C)[C@@H]3CC=C4[C@H](C[C@H](O)C(=O)C4(C)C)[C@]3(C)C(=O)C[C@]12C	1
CNCC(O)c1ccc(O)cc1 (stereo not drawn) [Synephrine HCl]	-1
CC(=O)OCC1=C(C(=O)O)N2C(=O)C(N)C2SC1 (stereo not drawn)	-1
CN1C2CCC1CC(O)C2 (stereo not drawn)	-1
O=C(/C=C/c1ccccc1)OC[C@H]1O[C@@H](O[C@@H]2OC=C[C@H]3[C@H](O)[C@@H]4O[C@]4(CO)[C@@H]23)[C@H](O)[C@@H](O)[C@@H]1O [Picroside I]	-1
COc1ccc2c(c1OC)CC1c3c(cc4c(c3-2)OCO4)CCN1C (stereo not drawn)	-1
CCN(CC)CCOC(=O)C(O)(c1ccccc1)c1ccccc1 [Benactyzine hydrochloride]	-1
C[N+](C)(C)CCCCCCCCCC[N+](C)(C)C [Decamethonium Bromide]	-1
O=C(C[S+]([O-])C(c1ccccc1)c1ccccc1)NO (stereo not drawn)	-1
O=C/C=C/c1ccccc1	-1
CN(C)Cc1c[nH]c2ccccc12	-1
Nc1ncnc2c1ccn2[C@@H]1O[C@H](CO)[C@@H](O)[C@H]1O	1
Cc1cc(C(=O)CN2CCCC2)c(C)n1-c1ccc(F)cc1	-1
COc1ccc2c(c1)/C(=C/c1cnc[nH]1)C(=O)N2	1
C=C[C@H]1CN2CC[C@@]3(C(=O)Nc4ccccc43)[C@@H]2C[C@@H]1/C(=C\OC)C(=O)OC	1

----------
Test system: OCI-AML2
Test: cell viability relative to vehicle control; higher = less cytotoxic
Settings: 10 µM; SRSF2 genotype: P95H/wt

molecule	cell viability
C[N+]1(C)CCCC(OC(=O)C(O)(c2ccccc2)c2ccccc2)C1 (configuration not stated) [mepenzolate bromide]	101%
CCO[C@H]1O[C@@H]2O[C@@]3(C)CC[C@H]4[C@H](C)CC[C@@H]([C@H]1C)[C@@]24OO3	55.5%
C=C[C@]12CN(C)[C@@H]3[C@H]4CO[C@H](C[C@H]41)[C@]1(C(=O)Nc4ccccc41)[C@@H]32	90.1%
O=S(=O)(CC1CS1)c1ccc(Oc2ccccc2)cc1 (configuration not stated)	14.9%
O=C(O[C@H]1C[C@H]2CC[C@@H](C1)[N+]21CCCC1)C(O)(c1ccccc1)c1ccccc1 [Trospium chloride (Sanctura)]	102%
CCOC(=O)Nc1ccc(NCc2ccc(F)cc2)cc1N	98.5%
COc1cc2c(cc1OC)C(Cc1ccc(O)c(Oc3cc4c(cc3OC)CCN(C)C4Cc3ccc(O)cc3)c1)N(C)CC2.[O-][Cl+3]([O-])([O-])O (configuration not stated) [Liensinine diperchlorate]	63.7%

Each recorded value in this set is attributed to the supplement of paper PMC10981050.
